experiment: Quantitative High-Throughput drug screen in 47 multiple myeloma cell lines against the NCATS MIPE library collection: KMS27_JCRB cell viability assay (AID 1918970); conditions: KMS27 myeloma cells, CellTiter-Glo ATP viability, 48 h; series mostly up to 45.8 µM;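 note: 100% = DMSO-only wells and 0% = media-only wells without cells; nearly all actives have a fitted effect of over 30% in size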
Inconclusive results are not listed. Activity calls are given as the source filed them. Calls come from the whole dose curve; as a rule, active = well fitted cell-killing curve with a large enough effect; inconclusive = small, poorly fitted or top-dose-only effect, or effect the other way; inactive = no such curve, though single readings can be large or run the other way.

| COMPOUND | outcome |
| --- | --- |
| COc1ccccc1OCC(O)COC(N)=O (stereo not drawn) | inactive |
| CNS(=O)(=O)Cc1ccc2[nH]cc(CCN(C)C)c2c1 | inactive |
| CC(C)C1CCC(C(=O)N[C@H](Cc2ccccc2)C(=O)O)CC1 (stereo partly drawn) | inactive |

---

system: SC27B; assay: qHTS profiling for inhibitors of Plasmodium falciparum proliferation (AID 504749); note: nearly all actives have a fitted effect of over 60% in size; settings: P. falciparum in erythrocytes, SYBR Green DNA, 72 h; series mostly up to 28.7 µM
Inconclusive results are not listed. Calls of active or inactive are those of the source. Calls come from the whole dose curve; as a rule, active = well fitted inhibition curve with a large enough effect; inconclusive = small, poorly fitted or top-dose-only effect; inactive = flat fitted curve, though single readings scatter.
Classes used: active, inactive

| STRUCTURE NOTATION | GROUP |
| --- | --- |
| CNS(=O)(=O)Cc1ccc2[nH]cc(CCN(C)C)c2c1 | inactive |
| CC(C)(C#N)c1cc(Cn2cncn2)cc(C(C)(C)C#N)c1 | inactive |
| CCCc1cc(C(N)=S)ccn1 | inactive |
| CCOC(=O)c1ccc(C#Cc2ccc3c(c2)C(C)(C)CCS3)nc1 | inactive |
| COc1cc([C@@H]2c3cc4c(cc3[C@H](O)[C@H]3COC(=O)[C@H]23)OCO4)cc(OC)c1OC | active |
| COc1cnc(NS(=O)(=O)c2ccc(N)cc2)nc1 | inactive |
| CCc1cc(C(N)=S)ccn1 | inactive |
| COc1cc2c(Nc3ccc(Br)cc3F)ncnc2cc1OCC1CCN(C)CC1 | active |

---

test: qHTS of pediatric cancer cell lines to identify multiple opportunities for drug repurposing: Confirmatory screen for Rh41 cells (AID 1347123); settings: Rh41 rhabdomyosarcoma cells, viability/cytotoxicity qHTS; series mostly up to 45.9 µM;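 note: 48 h compound exposure; nearly all actives have a fitted effect of over 60% in size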
Results filed as inconclusive are left out. Activity calls are given as the source filed them. Calls follow the shape of the dose curve; as a rule, active = well fitted cell-killing curve with a large enough effect; inconclusive = small, poorly fitted or top-dose-only effect; inactive = no such curve, though single readings can be large or run the other way.
Labels: t (active), f (inactive)

| MOLECULE | GROUP |
| --- | --- |
| Oc1c(Cl)cc(Cl)c2cccnc12 | t |
| CC1CC2C3CCC4=CC(=O)C=C[C@]4(C)[C@@]3(F)[C@@H](O)C[C@]2(C)[C@@]1(O)C(=O)CO (some centres undefined) | f |
| C[C@@H]1C[C@H]2[C@@H]3CCC4=CC(=O)C=C[C@]4(C)[C@@]3(Cl)[C@@H](O)C[C@]2(C)[C@@]1(OC(=O)c1ccco1)C(=O)CCl | t |
| CC(=O)[C@H]1CC[C@H]2[C@@H]3CCC4=CC(=O)CC[C@]4(C)[C@H]3CC[C@]12C | t |
| COc1cc2c(Nc3ccc(Br)cc3F)ncnc2cc1OCC1CCN(C)CC1 | t |
| CNS(=O)(=O)CCc1ccc2[nH]cc(C3CCN(C)CC3)c2c1 | f |
| C[C@@H](CN1CC(=O)NC(=O)C1)N1CC(=O)NC(=O)C1 | f |
| CCC(=O)O[C@]1(C(=O)SCF)[C@H](C)C[C@H]2[C@@H]3C[C@H](F)C4=CC(=O)C=C[C@]4(C)[C@@]3(F)[C@@H](O)C[C@@]21C | f |
| NC(=O)c1cccnc1 | f |

---

system: OV90; assay: Primary qHTS to identify gynecologic anti-cancer compounds using libraries of approved drugs and bioactive compounds (AID 1345084); details: Gynecologic cancer cell panel viability, ATPlite luminescence, 48 h; series mostly up to 57.5 µM; note: nearly all actives have a fitted effect of over 55% in size
Results filed as inconclusive are left out. Active and inactive are the calls of the source. Calls follow the shape of the dose curve; as a rule, active = well fitted cell-killing curve with a large enough effect; inconclusive = small, poorly fitted or top-dose-only effect, or effect the other way; inactive = flat fitted curve, though single readings scatter.
Outcomes: YES = active, NO = inactive

| COMPOUND | GROUP |
| --- | --- |
| CC[C@H](NC(C)C)[C@H](O)c1ccc(O)c2[nH]c(=O)ccc12 | NO |
| CCC(C)(C)c1ccc(CC(C)CN2C[C@@H](C)O[C@@H](C)C2)cc1 (stereo partly drawn) | NO |
| COc1cc([C@@H]2c3cc4c(cc3[C@H](O)[C@H]3COC(=O)[C@H]23)OCO4)cc(OC)c1OC | YES |

---

test: qHTS of pediatric cancer cell lines to identify multiple opportunities for drug repurposing: Primary screen for SJ-GBM2 cells (AID 1347091); settings: SJ-GBM2 viability, CellTiter-Glo luminescence, 48 h; series mostly up to 46 µM
Records with an inconclusive call do not appear. Activity calls are given as the source filed them. Calls follow the shape of the dose curve; as a rule, active = well fitted cell-killing curve with a large enough effect; inconclusive = small, poorly fitted or top-dose-only effect; inactive = no such curve, though single readings can be large or run the other way.
Labels: T = active, F = inactive

| COMPOUND | GROUP |
| --- | --- |
| CC(C(=O)O)c1ccc2c(c1)CC(=O)c1ccccc1S2 (stereo unspecified) | F |
| C[C@@H]1CN(c2c(F)c(N)c3c(=O)c(C(=O)O)cn(C4CC4)c3c2F)C[C@H](C)N1 | F |
| CC(C)(Sc1cc(C(C)(C)C)c(O)c(C(C)(C)C)c1)Sc1cc(C(C)(C)C)c(O)c(C(C)(C)C)c1 | F |
| CCn1cc(C(=O)O)c(=O)c2cc(F)c(N3CCN(C)CC3)cc21 | F |
| COc1c(N2CCNC(C)C2)c(F)cc2c(=O)c(C(=O)O)cn(C3CC3)c12 (stereo unspecified) | F |
| NCCCC(O)(P(=O)(O)O)P(=O)(O)O | F |
| CCn1cc(C(=O)O)c(=O)c2cc(F)c(N3CCNCC3)cc21 | F |
| CN(Cc1cc(Br)cc(Br)c1N)C1CCCCC1 | F |
| CC(=O)CC(c1ccccc1)c1c(O)c2ccccc2oc1=O (stereo unspecified) | F |
| CN1CCN(c2c(F)cc3c(=O)c(C(=O)O)cn4c3c2OCN4C)CC1 | F |
| CC(=O)Oc1ccccc1C(=O)Nc1ncc([N+](=O)[O-])s1 | T |
| Cc1oc(=O)oc1CN1CCN(c2cc3c(cc2F)c(=O)c(C(=O)O)c2n3C(C)S2)CC1 (stereo unspecified) | F |
| O=c1oc2c(O)c(O)cc3c(=O)oc4c(O)c(O)cc1c4c23 | F |
| CCOC(=O)[C@H](CCc1ccccc1)N[C@H]1CCc2ccccc2N(CC(=O)O)C1=O | T |
| CCn1cc(C(=O)O)c(=O)c2cc(F)c(N3CCNCC3)nc21 | F |
| O=P(O)(O)C(O)(Cc1cccnc1)P(=O)(O)O | F |
| O=C(O)c1cccnc1 | F |
| O=C(O)c1ccc(-n2nc(-c3ccccc3O)nc2-c2ccccc2O)cc1 | T |
| S=P(N1CC1)(N1CC1)N1CC1 | F |
| CC(C)(C)NC(=O)[C@H]1CC[C@H]2[C@@H]3CC[C@H]4NC(=O)C=C[C@]4(C)[C@H]3CC[C@]12C | T |
| O=NN(CCCl)C(=O)NC1CCCCC1 | F |

---

experiment: Quantitative High-Throughput drug screen in 47 multiple myeloma cell lines against the NCATS MIPE library collection: MM1R_ATCC cell viability assay (AID 1918981); conditions: MM1R multiple myeloma cells, CellTiter-Glo viability, 48 h; series mostly up to 45.8 µM; note: nearly all actives have a fitted effect of over 35% in size
Results filed as inconclusive are left out. Activity calls are given as the source filed them. Calls follow the shape of the dose curve; as a rule, active = well fitted cell-killing curve with a large enough effect; inconclusive = small, poorly fitted or top-dose-only effect, or effect the other way; inactive = no such curve, though single readings can be large or run the other way.
Outcomes: label 1 (active), label 0 (inactive)

| MOLECULE | GROUP |
| --- | --- |
| CCN(CC)CC#CCOC(=O)C(O)(c1ccccc1)C1CCCCC1 (stereo not drawn) | label 0 |
| CC(C)(C)NC(=O)[C@H]1CC[C@H]2[C@@H]3CC[C@H]4NC(=O)C=C[C@]4(C)[C@H]3CC[C@]12C | label 1 |
| O=C(O)C1CCCN(CCC=C(c2ccccc2)c2ccccc2)C1 (stereo not drawn) | label 0 |
| CC1=C(C(=O)O)N2C(=O)[C@@H](NC(=O)C(N)c3ccccc3)[C@H]2SC1 (stereo partly drawn) | label 0 |
| CCCCS(=N)(=O)CCC(N)C(=O)O (stereo not drawn) | label 0 |
| COc1ccc2cc3[n+](cc2c1OC)CCc1cc2c(cc1-3)OCO2 | label 1 |
| C[C@@H](NCCCc1cccc(C(F)(F)F)c1)c1cccc2ccccc12 | label 0 |
| Cc1onc(-c2ccccc2Cl)c1C(=O)N[C@@H]1C(=O)N2[C@@H]1SC(C)(C)[C@@H]2C(=O)O | label 0 |
| CC(=O)Oc1ccccc1C(=O)Nc1ncc([N+](=O)[O-])s1 | label 1 |
| OCc1ccc(-c2nn(Cc3ccccc3)c3ccccc23)o1 | label 1 |
| Nc1nc(N)nc(-c2cc(Cl)ccc2Cl)n1 | label 0 |
| Oc1c(Cl)cc(Cl)c2cccnc12 | label 1 |
| COC(=O)Nc1nc2ccc(C(=O)c3ccccc3)cc2[nH]1 | label 1 |
| COC(=O)Nc1nc2ccc(Sc3ccccc3)cc2[nH]1 | label 1 |
| CCOC(=O)[C@H](CCc1ccccc1)N[C@H]1CS[C@H](c2cccs2)CN(CC(=O)O)C1=O | label 1 |
| CC(N)C12CC3CC(CC(C3)C1)C2 (stereo not drawn) | label 0 |
| Cc1ncc([N+](=O)[O-])n1CCO | label 0 |
| CCOCC(O)COc1ccc(NC(=O)CC[S+](C)C)cc1 (stereo not drawn) | label 0 |
| CC1CC2C3CCC4=CC(=O)C=C[C@]4(C)[C@@]3(F)[C@@H](O)C[C@]2(C)[C@@]1(O)C(=O)CO (stereo partly drawn) | label 0 |
| Cc1nnc(C(=O)NC(C)(C)c2nc(C(=O)NCc3ccc(F)cc3)c(O)c(=O)n2C)o1 | label 0 |
| Cc1cc(NS(=O)(=O)c2ccc(N)cc2)no1 | label 0 |
| C1CCC(C(CC2CCCCN2)C2CCCCC2)CC1 (stereo not drawn) | label 1 |
| CCN1CCCC1CNC(=O)c1cc(S(N)(=O)=O)ccc1OC (stereo not drawn) | label 0 |
| CC(C)OC(=O)OCOP(=O)(CO[C@H](C)Cn1cnc2c(N)ncnc21)OCOC(=O)OC(C)C | label 1 |
| O=C(N[C@H](CO)[C@H](O)c1ccc([N+](=O)[O-])cc1)C(Cl)Cl | label 0 |
| CCOC(=O)[C@H](CCc1ccccc1)N[C@H]1CCc2ccccc2N(CC(=O)O)C1=O | label 1 |
| CC[C@H](C)C(=O)O[C@H]1C[C@@H](C)C=C2C=C[C@H](C)[C@H](CC[C@@H]3C[C@@H](O)CC(=O)O3)[C@H]21 | label 1 |
| COc1cc(NS(=O)(=O)c2ccc(N)cc2)nc(OC)n1 | label 0 |
| NC(=O)c1cccnc1 | label 0 |
| CNNCc1ccc(C(=O)NC(C)C)cc1 | label 1 |
| O=C(O)c1cc(=O)[nH]c(=O)[nH]1 | label 0 |
| COc1cc(NCc2ccc3nc(N)nc(N)c3c2C)cc(OC)c1OC | label 1 |
| O=C(O)c1cn(C2CC2)c2cc(N3CCNCC3)c(F)cc2c1=O | label 0 |
| O=C(O)c1cccnc1 | label 0 |
| Nc1nc(F)nc2c1ncn2[C@@H]1O[C@H](CO)[C@@H](O)[C@@H]1O | label 1 |
| S=P(N1CC1)(N1CC1)N1CC1 | label 1 |
| CO[C@@]12[C@H](COC(N)=O)C3=C(C(=O)C(C)=C(N)C3=O)N1C[C@@H]1N[C@@H]12 | label 1 |
| NCCCC(O)(P(=O)(O)O)P(=O)(O)O | label 0 |
